- Experimental Target: D(1A) dopamine receptor (Rattus norvegicus)
- Test Details: Binding affinity for dopamine receptor D1 in rat striatal homogenate
Measurement Label: K0.5 (nM)
Give your result in nM as a bare value.

The examples below pair each entry with its known result.
compound_structure=CCCN1Cc2ccccc2[C@@H]2c3cc(O)c(O)cc3CC[C@H]21 measurement_label=K0.5 measurement=180
compound_structure=CCc1ccc2c(c1)[C@@H]1c3cc(O)c(O)cc3CC[C@H]1NC2 measurement_label=K0.5 measurement=29.2
compound_structure=Oc1ccc2c(c1)CN[C@@H]1CCc3cc(O)c(O)cc3[C@@H]21 measurement_label=K0.5 measurement=12.2
compound_structure=CCCN1Cc2c(C)cccc2[C@@H]2c3cc(O)c(O)cc3CC[C@H]21 measurement_label=K0.5 measurement=23.4
compound_structure=CCCN1Cc2cc(C)ccc2[C@@H]2c3cc(O)c(O)cc3CC[C@H]21 measurement_label=K0.5 measurement=181

Now look at this entry.
Asked: Tell us which K0.5 value is on record for Oc1cc2c(cc1O)[C@H]1c3cc(-c4ccccc4)ccc3CN[C@@H]1CC2
Given back: 187
